inhibition overview
# Test Description: inhibitors of intracellular T. cruzi growth, primary screen, luminescence, NIH3T3 host cells (AID 1885);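 also: signal also drops with host cell toxicity which is not excluded here; 0% = plate median of DMSO wells and 100% = zero luminescence signal; higher percent means less beta-gal luminescence so fewer parasites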
# Recorded Conditions: T. cruzi beta-gal in NIH3T3, luminescence, 90 h; stronger effect = higher value; concentration not given here
About 4,400 (1.5%) of roughly 300,000 compounds were called active. What follows is part of a selection rich in actives, with near analogues and random picks from the rest.

* CCN(CC(=O)NCc1cccs1)S(=O)(=O)c1ccc(NC(C)=O)cc1 | -2.26% (inactive)
* O=S(=O)(c1ccccc1)N1CCC(c2ccccc2)CC1 | 0.981% (inactive)
* CC(C)Cn1c(N)c(C(=O)NCc2cccs2)c2nc3ccccc3nc21 | 59.8% (active)
* Cc1cc2c(C)nc(N/N=C/c3ccccc3)nc2o1 | 22.4% (inactive)
* Cc1nn(C)cc1S(=O)(=O)N1CCN(c2ccc(F)cc2)CC1 | 2.42% (inactive)
* CCCNC(=O)c1c(N)n(-c2ccc(S(N)(=O)=O)cc2)c2nc3ccccc3nc12 | -22.9% (inactive)
* Cc1nc(/N=C(\N)NC(=O)NC2CCCCC2)nc2ccccc12 | 10.4% (inactive)
* COc1nc(N=C(N)N)nc2c(C)cccc12 | 44.2% (inactive)
* CC1CCCCN1S(=O)(=O)c1ccc(C(=O)Nc2nnc(-c3cccs3)o2)cc1 (configuration not stated) | 43.1% (inactive)
* Cc1ccc(S(=O)(=O)N2CCC(C(=O)NCCC3=CCCCC3)CC2)cc1C | 8.76% (inactive)

Query: Provide inhibition value for the following molecule: CN(C1CCS(=O)(=O)C1)S(=O)(=O)c1ccc2ccccc2c1 (configuration not stated)
Response: -3.79% (inactive)

Query: Kindly indicate its recorded inhibition. Item: "CCN(CC)CCn1c2c(c(SCC(=O)Nc3ccc(C(C)C)cc3)nc1=O)CCC2"
Response: 9.44% (inactive)

Query: For "Cc1cccc(N(CC(=O)N=Nc2c(O)[nH]c3ccccc23)S(C)(=O)=O)c1C" , write its inhibition.
Response: 16.1% (inactive)

Query: Provide one value: measured inhibition of "O=[N+]([O-])c1cc(S(=O)(=O)Nc2cccc(Cl)c2)ccc1N=Nc1c(O)[nH]c2ccccc12"
Response: 61.7% (active)

Query: Supply recorded inhibition for "Cc1nc(N=C(N)N)nc2c(C)cccc12" here.
Response: 56.5% (active)

Query: Please indicate inhibition recorded for "Cc1ccc(OCCC(=O)OCC(=O)N2c3ccccc3NC(=O)C2(C)C)cc1"
Response: -1.24% (inactive)

Query: Output measured inhibition for this item: "CCc1c(C)nc2c(-c3ccccc3)c(C)nn2c1Nc1ccc(NC(C)=O)cc1"
Response: 54.5% (active)

Query: Read the entry "Cc1cc(-c2ccccc2)n2nc(C)c(-c3ccccc3)c2n1" and write its reported inhibition.
Response: 32.1% (inactive)

Query: Identify measured inhibition associated with "CN1CCN(c2ccc(S(=O)(=O)Nc3ccccc3)cc2[N+](=O)[O-])CC1"
Response: 18.5% (inactive)
